Reference for the values: PubChem BioAssay (NCI)

# Test system: SW-620 colon
# TEST_PROTOCOL: NCI-60 one-dose screen, 48 h (100 = growth as untreated, 0 = no growth, -100 = all killed)
# EXPERIMENTAL_PARAMETERS: 10 µM unless noted
This is part of a sample that, as a whole, favours compounds with a hit. Of some 83,000 tested, about 20% had one in any assay. Active and inactive are the calls of the source. How the source made its calls: active means growth percent below 10; inactive means the rest.
OBSERVATION_TYPE: growth

Lookup: // fetch growth for `O=C(CCCSc1nc(-c2ccccc2)cc(-c2ccccc2)n1)NO` ; system: SW-620 colon
Found: 16% (inactive)

Lookup: Please report growth with SW-620 colon for item `O=C(CSc1nc2ccc([N+](=O)[O-])cc2[nH]1)Nc1ccc(F)c(Cl)c1` .
Found: 26.4% (inactive)

Lookup: # return growth of `CC(C)(C)OC(=O)N1C=C/C(=C\Cn2cc(-c3ccccc3)nn2)CC1` (system: SW-620 colon)
Found: 93.8% (inactive)

Lookup: Given `Nc1nc(Nc2ccccc2)c2ncn(Cc3ccc4c(c3)OCO4)c2n1` , report its growth on SW-620 colon.
Found: 23.1% (inactive)

Lookup: Report value only: growth, SW-620 colon, `CC(C)c1ccc(C(=O)Nc2nc3ccc(O)cc3s2)cc1`
Found: 16% (inactive)

Lookup: Send back SW-620 colon growth of `c1cc2ccc1CNCCN1CCNCc3ccc(cc3)Oc3ccc(cc3)CNCCN(CCNCc3ccc(cc3)O2)CCNCc2ccc(cc2)Oc2ccc(cc2)CNCC1` only.
Found: -75.5% (active)

Lookup: Report measured growth on SW-620 colon; entry: `COc1cc(C)cc2oc3oc(=O)c(C(=O)c4cc5cc(Br)ccc5o4)cc3c(=O)c12`
Found: 101% (inactive)

Lookup: For SW-620 colon, give growth of the listed compound: `C1=C[C@H]2O[C@@H]1c1ccc3[nH]ccc3c12`
Found: 73.4% (inactive)

Lookup: Write down the reported growth (system: SW-620 colon) of `CC(C)CCSC1=CC(=O)c2ccccc2C1=O`
Found: -16.7% (active)

Lookup: Give SW-620 colon growth for the following compound: `COc1cc(-c2nc(SCCC(C)C)nc(Nc3ccccc3)c2C#N)cc(OC)c1OC`
Found: 104% (inactive)

* * *

# Tested on: SF-268 CNS
# TEST_PROTOCOL: NCI-60 one-dose screen, 48 h
# EXPERIMENTAL_PARAMETERS: 10 µM unless noted
# Experimental: Cells are grown in 96 well plates and exposed to the test compound for 48 hours. Compounds are tested at a single concentration, which is 10^-5 M for most compounds. The reported endpoint is percent growth (GI% or GIPRCNT), where numbers from 0 - 100% represent growth inhibition, and numbers from -100% - 0 represent cell death. For example, a value of 40 represents 60% growth inhibition. A value of 0 means no net growth occurred over the course of the experiment. […]
The panel holds about 83,000 compounds, 20% with a hit somewhere; the sample as a whole holds those more often. The source made the active and inactive calls. The calls were made as follows: active = growth percent below 10; inactive = the rest.
Please answer using one outcome listed in T = active, F = inactive

Lookup: Name the outcome recorded for `CCOC(=O)CCC[P+](c1ccccc1)(c1ccccc1)c1ccccc1` in the assay.
Found: F

Lookup: Please share the test call associated with `CC(C)CCSc1nc(N)nc2nc[nH]c12` .
Found: F

Lookup: # outcome recorded in this test, key = `Nc1nc(Nc2ccccc2)c2ncn(Cc3cc4c(cc3Br)OCO4)c2n1`
Found: F

Lookup: Just curious, what result did COc1ccc2c(c1)C(C)Cc1c(ncnc1-n1cnc3ccccc31)N2C (stereo not given) get here?
Found: F

Lookup: Dear all, I need the recorded test outcome for `CSc1cccc([N+](=O)[O-])c1` , thank you.
Found: F

Lookup: Assay result, entry COc1ccc(C2CC(c3cc(OC)c(OC)c(OC)c3)=NN2C(C)=O)cc1OCC(=O)Nc1nc2ccc(C(F)(F)F)cc2s1 (stereo not given) — outcome?
Found: F

Lookup: Please share the test call associated with `N#C/C(C(=O)c1ccccc1)=C1/C(=O)Nc2ccc(Br)cc21` .
Found: F

Lookup: Dear all, I need the recorded test outcome for `COc1ccc(-c2cc(-c3ccc(Cl)cc3)nc(NCCCCNc3ccnc4cc(Cl)ccc34)n2)cc1` , thank you.
Found: F

Lookup: Hi, do you know how `COc1ccc(C(=O)c2nccc3cc(OC)c(OC)cc23)cc1OC` came out in this test?
Found: F

Lookup: Assay result, entry `CCOC(=O)/C(C#N)=C(\C)CCc1ccccc1` — outcome?
Found: F

Lookup: Field: outcome | Entry: `CN(C)Cc1ccc[nH]1`
Found: F

Lookup: Any idea what this test logged for `O=C(NCCCNC(=O)OCc1ccc2c(Br)cc(Br)c(O)c2n1)OCc1ccc2c(Br)cc(Br)c(O)c2n1` ?
Found: F

Lookup: # fetch the recorded call for Fc1cc2[nH]ncc2c2c3c(c(-c4cn[nH]c4C(F)(F)F)nc12)C1CCC3C1 (stereo not given) here
Found: T

Lookup: Entry `O=S(=O)(c1ccc(N/N=C\c2ccccc2Cl)cc1)c1ccc(N/N=C/c2ccccc2Cl)cc1` : call = ?
Found: F

Lookup: Given N#CC1C(=O)NC(c2ccccc2[N+](=O)[O-])c2sc3c(F)cccc3c21 (stereo not given) , state the outcome it received in this test.
Found: F

Lookup: Hello, I am checking results. What call was entered for `O=C(N=c1n(-c2ccccc2)nc2n1CCN2C1=NCCN1)c1ccc(Cl)cc1` ?
Found: F

Lookup: Outcome logged for CCOC(=O)C(C(C)=O)c1nc2sc3cc(Cl)c(Cl)cc3n2c(=O)c1C#N (stereo not given) in this assay:
Found: F

Lookup: What did this assay record as the result for `COc1ccc(-c2cc(-c3ccc(Cl)cc3)nc(SCCCCCCC(=O)NO)n2)cc1` ?
Found: F

Lookup: Recorded test call requested for `Cc1cccc(/C=C2\N=C(c3ccccc3)N(c3ccc(S(N)(=O)=O)cc3)C2=O)c1`
Found: F

Lookup: What was the test verdict on `COc1cc(C)cc2oc3oc(=O)c(C(=O)c4cc5cc(Br)ccc5o4)cc3c(=O)c12` ?
Found: F

Lookup: Identify the outcome logged in this assay for the compound shown: `CNC(=O)c1cc(Oc2cccc3nc(NC(=O)Nc4cc(C(F)(F)F)cc(C(F)(F)F)c4)ccc23)ccn1`
Found: F

Lookup: So what was the verdict on `Fc1cc2[nH]ncc2c2c3c(c(-c4cn[nH]c4)nc12)CCCC3` in this test?
Found: T

Lookup: What did the test return for `FC(F)(F)c1ccc2c(c1)Sc1ccccc1N2` ?
Found: F

Lookup: # outcome recorded in this test, key = `C=C(C)[C@@H]1CC[C@]2(C)[C@H](CC[C@@H]3[C@@H]([C@@](C)(O)CCC=C(C)C)CC[C@]32C)[C@@]1(C)CCC(=O)O`
Found: T

Lookup: Please share the test call associated with N#Cc1c(Cl)nc(SCC2CO2)nc1-c1ccccc1 (stereo not given) .
Found: F

Lookup: What is the recorded call for this compound in the test? `O=C(NNc1ccc(-c2ccccc2)nn1)c1ccccc1`
Found: F

Lookup: Please state the recorded outcome for this compound: `CCOC(=O)c1cc(C#N)n2ncc3ccccc3c12`
Found: F

Lookup: For this compound, state the assay outcome: `CCOC(CNC(=O)c1cccc([N+](=O)[O-])c1)OCC`
Found: F

Lookup: Hey, what did the test say about CC/C=C(\C)C(CCC)(CN=O)C(=O)OCC (stereo not given) ?
Found: F

Lookup: Call for entry O=C1Cc2c(sc3c(F)cccc23)C(c2ccccc2[N+](=O)[O-])N1 (stereo not given) :
Found: F

Lookup: Hi team, can someone confirm the assay call for `CCOC(=O)Nc1ccc2c(c1)/C(=N\NC(=S)NC)c1ccccc1-2` ?
Found: F

Lookup: Hey, what did the test say about CCc1ccc(-c2ccc(COc3ccc(CC4SC(=O)NC4=O)cc3)cc2)cc1 (stereo not given) ?
Found: F

Lookup: For CCN(CC)c1ccc2cc(C(Nc3ccc(C)cc3)c3nnnn3C(C)(C)C)c(=O)oc2c1 (stereo not given) , which call appears in the assay record?
Found: F

Lookup: For this compound, state the assay outcome: `CC(=O)Nc1ccc(C=Nc2ccc3ccccc3c2)cc1`
Found: F

Lookup: For this compound, state the assay outcome: CC1Cc2c(Cl)ncnc2N(C)c2ccc(Cl)cc21 (stereo not given)
Found: F

Lookup: Look up the recorded call for `COC(=O)[C@]1(C)CC[C@]2(C)CC[C@]3(C)C(=CC(=O)[C@@H]4[C@@]5(C)CCC(=O)NC(C)(C)[C@@H]5CC[C@]43C)[C@@H]2C1` in this test.
Found: T

Lookup: # outcome recorded in this test, key = `COc1ccc(C=C2c3ccccc3-c3ccccc32)cc1`
Found: F

Lookup: # lookup: test call for `C=C(C)[C@@H]1CC[C@]2(C)[C@H](CC=C3[C@@H]4[C@@H](C)[C@H](C)CC[C@]4(C(N)=O)CC[C@]32C)[C@@]1(C)CCC#N`
Found: F

Lookup: Which result was noted for this compound in the test: C=CC1=C(C)C2=NC1=CC1=NC(=CC3=C(C)C4=C(O)C(C(=O)O)C(=C5NC(=C2)C(C)C5CCC(=O)O)C4=N3)C(CC)=C1C (stereo not given)
Found: F

Lookup: Recorded test call requested for `CCOC(=O)c1ccc2nc(-c3c(C)nn(-c4ccccc4)c3N3CCOCC3)[nH]c2c1`
Found: F
